EXPERIMENTAL SYSTEM: recombinant human CB1 receptor (Homo sapiens)
Sequence (P21554 whole entry): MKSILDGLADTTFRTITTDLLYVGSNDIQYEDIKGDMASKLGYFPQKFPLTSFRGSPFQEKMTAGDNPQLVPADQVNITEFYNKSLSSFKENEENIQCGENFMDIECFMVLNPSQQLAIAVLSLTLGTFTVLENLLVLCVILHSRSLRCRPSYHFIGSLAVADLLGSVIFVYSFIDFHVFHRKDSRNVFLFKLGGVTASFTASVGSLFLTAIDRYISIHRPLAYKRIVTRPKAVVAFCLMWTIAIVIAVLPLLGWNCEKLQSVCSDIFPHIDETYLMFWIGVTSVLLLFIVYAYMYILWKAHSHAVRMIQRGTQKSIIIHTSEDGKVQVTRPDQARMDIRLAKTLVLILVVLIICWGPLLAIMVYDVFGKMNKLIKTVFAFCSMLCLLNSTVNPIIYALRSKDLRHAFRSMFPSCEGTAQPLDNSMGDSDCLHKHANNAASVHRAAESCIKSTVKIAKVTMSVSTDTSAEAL
METHOD NOTES: Cannabinoid Receptor-1 (CB1) Binding Assay ([3H]CP-55940 displacement)
CONDITION: recombinant human CB1 receptor in CHO cell membranes, 0.6 nM [3H]CP-55940
METRIC NAME: IC50 (nM)

Example entries begin here.
Ask: IC50 lookup needed for CC(C)(C)c1nc2nc(-c3ccc(C#N)cc3C#N)c(-c3ccc(Cl)cc3)cc2c2n[nH]c(=O)n12 [Example 31] , thanks.
Result: 4

Ask: IC50 lookup needed for CC(C)(C)c1nc2nc(-c3ccccc3-c3ccc(F)cc3)c(-c3ccc(F)cc3)cc2c2n[nH]c(=O)n12 [Example 27] , thanks.
Result: 6

Ask: IC50 lookup needed for CC(C)(C)c1nc2nc(-c3ccccc3Cl)c(-c3ccc(Cl)cc3)cc2c2n[nH]c(=O)n12 [Example 1] , thanks.
Result: 2

1: CC(=O)c1ccc(-c2cc3c(nc2-c2ccccc2Cl)nc(C(C)(C)C)n2c(=O)[nH]nc32)cc1 [Example 9]
2: CC(C)(C)c1nc2nc(-c3ccccc3Cl)c(-c3ccc(C#N)cc3)cc2c2n[nH]c(=O)n12 [Example 16]
Ask: Recorded IC50 values differ for 1 and 2 ; which one is higher? Answer = label.
Result: 1

A: CC(C)(C)c1nc2nc(-c3ccc(C#N)cc3Cl)c(-c3ccc(Cl)cc3)cc2c2n[nH]c(=O)n12 [Example 28]
B: CC(C)(C)c1nc2nc(-c3ccccc3Cl)c(-c3ccc(-c4ncon4)cc3)cc2c2n[nH]c(=O)n12 [Example 32]
Ask: Recorded IC50 values differ for A and B ; which one is higher? Answer = label.
Result: B
(B: 11 nM, A: 1 nM)
